assayed-target: Tau40 P301L protein (human)
test-method-notes: cell-based or functional assay
Square brackets hold non-standard residues; d marks the D form. Ends that are not written are not given here.
quantity-kind: IC50, Tau40 assay (ThT) (µM)
Note: unit µM is implicit; provide only the numeric part.

binder: [dL][dK][dI][dL][dI][dH][dY][dH] [lkilihyh (PEPTIDE ID NO: 223)]
unit-name: µM
IC50, Tau40 assay (ThT): 0.86

IC50, Tau40 assay (ThT) recorded for this binder, [dW][dR][dL][dR][dV][dR][dW][dW] [wrlrvrww (PEPTIDE ID NO: 238)] , is 1

IC50, Tau40 assay (ThT) recorded for this binder, [dR][dL][dK][dV][dR][dW][dW][dW] [rlkvrwww (PEPTIDE ID NO: 224)] , is 0.87

IC50, Tau40 assay (ThT) recorded for this binder, [dW][dR][dL][dR][dL][dR][dW] [wrlrlrw (PEPTIDE ID NO: 200)] , is 0.7
